# maps each entry to its GI50
# Tested on: RXF 393 renal
# Test Name: NCI tumour cell line growth inhibition, 48 h

# Molecule, GI50
data = [
    ("CC(=O)O[C@H](C[C@H](C(C)C)N(C)C(=O)[C@@H](NC(=O)[C@H]1CCCCN1C)C(C)C)c1nc(C(=O)N[C@@H](Cc2ccccc2)C[C@H](C)C(=O)O)c(C(C)C)s1", "< 3.33 nM"),
    ("O=C(Nc1ccc(Oc2ccc3nc(NC(=O)c4ccccc4)[nH]c3c2)cc1)Nc1cc(C(F)(F)F)ccc1F", "1110 nM"),
    ("COc1cnc2c(c1)C(=O)c1c-2n(CCCN2CCC(O)CC2)c(=O)c2cc(F)ccc12", "217 nM"),
]

Turning now to a further molecule:
Prompt: Write down GI50 measured for item CN(C)c1ncnc2c1nnn2C1OC(CO)C(O)C1O (centres undefined)
Completion: 386 nM
